# System under test: Neu5Ac(a2-3)Gal(b1-4)GlcNAc(b1-3)Gal(b1-4)GlcNAc(b1-3)Gal(b1-4)GlcNAc(b1-2)Man(a1-3)[Neu5Ac(a2-3)Gal(b1-4)GlcNAc(b1-3)Gal(b1-4)GlcNAc(b1-3)Gal(b1-4)GlcNAc(b1-2)Man(a1-6)]GalNAc
# Assay method text: glycan array binding signal (z-score within array); higher = stronger binding
# Measurement context: glycan notation: IUPAC condensed, linker removed
The entries come from a sample that favours the strongest signals as a whole.
The following binders are listed with their measured glycan array binding signal (z-score) values.
Measurement type: glycan array binding signal (z-score)

>>> experimental_result("Cohesin-hDECTIN-1 (Homo sapiens) (protein) LDITSHHHHHHDDLDAVRIKVDTVNAKPGDTVRIPVRFSGIPSKGIANCDFVYSYDPNVLEIIEIEPGDIIVDPNPDKSFDTAVYPDRKIIVFLFAEDSGTGAYAITKDGVFATIVAKVKEGAPNGLSVIKFVEVGGFANNDLVEQKTQFFDGGVNVGDTTEPATPTTPVTTPTTTDDLDAASSSPCPPNWIIYEKSCYLFSMSLNSWDGSKRQCWQLGSNLLKIDSSNELGFIVKQVSSQPDNSFWIGLSRPQTEVPWLWEDGSTFSSNLFQIRTTATQENPSPNCVWIHVSVIYDQLCSVPSYSICEKKFM")
-0.295
>>> experimental_result("GSL-I (Griffonia simplicifolia) (protein) FNLPNFWSDVKDNIIFQGDANTTAGTLQLCKTNQYGNPLQYRAGRALYSDPVQLWDNKTGSVASFYTEFTFFLKITGDGPADGLAFFLAPPDSDVKDAGAYLGLFNKSTATQPSKNQVVAVEFDTWKNTDFPEPSYRHIGINVNSIVSVATKRWEDSDIFSGKIATARISYDGSAKILTVVLSYPDGADYILSHSVDLSKNLPNPIRVGISASTGANQFLTVYVLSWRFSSALQSTSVNAAMGPEIIRTVV")
2.34
>>> experimental_result("rCnSL-proA (Clitocybe nebularis) (protein) AAFFSLVVLLALLPFGIHASALPSTELTPRVNPNLPGPNDVFVGFRGTNNIVGAIYEKDGIKDTPLNNGADAEMGPGSYITDGLFTARIFASGSAGNNPGTTATVCKIYASGVQWRGAPKGYIPVAYFGNGPTAEQRRQTYLRTLGLPGTAIRFGNLNTNPGQGPTAPRQMVVPPGPLRSLLKASCFPAADTRLPQTLHYFEKRVDWNIITAADSQTWGH")
4.1
>>> experimental_result("rCnSL-proB (Clitocybe nebularis) (protein) PTFSPIFALLAFLPFGTLASLLPQTQLVFRINPNLPGPNDVFVGYRGTNNVVGAIYERDGIKDTPMNNGADAELGPGSYITDDLFTAQIFASGSAGNNPGTTATVCKIYADGVQWRGAPKGYLPVLYFGNGQAAEQTRQTYLQGLDIPGTAIRFANLAKTPNQGPTAPRQMVVPSGGLQTLLKASCFPANHAALPQVLSYFNVRAALPPGWNIRTGPEFPNWTN")
4.43
>>> experimental_result("MGL1 (Mus musculus), P49300 (protein) MIYENLQNSRIEEKTQEPGKAPSQSFLWRILSWTHLLLFSLGLSLLLLVVVSVIGSQNSQLRRDLGTLRATLDNTTSKIKAEFQSLDSRADSFEKGISSLKVDVEDHRQELQAGRDLSQKVTSLESTVEKREQALKTDLSDLTDHVQQLRKDLKALTCQLANLKNNGSEVACCPLHWTEHEGSCYWFSESEKSWPEADKYCRLENSHLVVVNSLEEQNFLQNRLANVVSWIGLTDQNGPWRWVDGTDFEKGFKNWAPLQPDNWFGHGLGGGEDCAHITTGGPWNDDVCQRTFRWICEMKLAKES")
3.39
>>> experimental_result("SP15308C-bot-338-23-338 (Bacteroides ovatus) (protein) DEWTDEQFKQLISFKTQPGGWGVTDVHVRYANSAKYTYNLPVLVSGSTDNTDDRLVSFSLRDDTLDILNFEKFGNRPELYFRELPQKYYSFPKELTIPAGQSHALLPIEFSLDGLDDSQKWALPLKVCEDANGTYAVNPRKYYRTAVLRPILFNEFSGRFSGSSLLGTMAGESDIKFSSTEIKLNVVTDSIVFFYAGQRTEDYEDRINYKVFLQFTGDKVDSKKDLYKMKIWAENEKLKFNSYSTPTYKVSSEMDATKTYLKHTYIVISDIDFDFVDYTSVPNYEIEYNMKGGLSVSRDLDTRKPDEDQGSDSKWW")
0.621
>>> experimental_result("EULS2 M2 (Oryza sativa) (protein) MVYCRANPNYAMTARNGAVVLAPANPKDEYQHWIKDMRWSTSIKDEEGYPAFALVNKATGQAIKHSLGQSHPVRLVPYNPEVMDESVLWTESRDVGNGFRCIRMVNNIYLNFDAFHGDKYHGGVRDGTDIVLWKLCEGDSQRWKIQPYYILEQKLISEEDLNSAVDHHHHHH")
-0.26
>>> experimental_result("LFA (Limax flavus) (protein) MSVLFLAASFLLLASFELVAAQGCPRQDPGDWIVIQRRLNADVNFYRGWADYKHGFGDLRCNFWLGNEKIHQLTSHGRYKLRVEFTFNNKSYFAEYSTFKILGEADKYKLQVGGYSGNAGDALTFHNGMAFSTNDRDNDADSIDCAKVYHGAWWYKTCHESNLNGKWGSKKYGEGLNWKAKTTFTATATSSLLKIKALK")
4.29
